molecular target: Serine/threonine-protein kinase PAK 5 (Homo sapiens); settings: at 10 µM
QUANTITY: residual activity
Respond with a number, then the unit of measure.

Look over these answered cases.
[
  {
    "COMPOUND_SMILES": "O=C1Cc2c([nH]c3ccc(Br)cc23)-c2ccccc2N1",
    "residual activity": "17%"
  },
  {
    "COMPOUND_SMILES": "NC(=O)Nc1sc(-c2ccc(F)cc2)cc1C(N)=O",
    "residual activity": "27%"
  },
  {
    "COMPOUND_SMILES": "O=C(CCCc1ccc(-c2ccccc2F)cc1)Nc1ccc(O)cc1",
    "residual activity": "95%"
  },
  {
    "COMPOUND_SMILES": "Nc1ncnc2c1c(-c1ccc(Oc3ccccc3)cc1)cn2C1CCCC1",
    "residual activity": "44%"
  }
]

Return reported residual activity for target or system Serine/threonine-protein kinase PAK 5 (Homo sapiens), item COc1cc2nccc(Oc3ccc(NC(=S)NC(=O)c4ccccc4C)cc3)c2cc1OC .
67%

Lab note: record residual activity of NC(=O)c1cccc(-c2cc(Nc3ccc(OC(F)(F)F)cc3)ncn2)c1 tested on Serine/threonine-protein kinase PAK 5 (Homo sapiens).
84%

State, for Serine/threonine-protein kinase PAK 5 (Homo sapiens), measured residual activity of the compound listed here: O=c1cc(N2CCNCC2)oc2c(-c3ccccc3)cccc12
95%

Enter measured residual activity, system Serine/threonine-protein kinase PAK 5 (Homo sapiens), for the compound shown: Oc1cccc(-c2nc(N3CCOCC3)c3oc4ncccc4c3n2)c1
84%

Answer briefly: residual activity recorded on Serine/threonine-protein kinase PAK 5 (Homo sapiens) for NCCNc1ncc(C(N)=O)c(Nc2cccc(C(F)(F)F)c2)n1
9%

====

Measured residual activity values are reported for all entries that follow.
target: Serine/threonine-protein kinase 33 (Homo sapiens) (UniProt Q9BYT3); details: at 1 µM
Sequence (Q9BYT3 whole entry, looked up): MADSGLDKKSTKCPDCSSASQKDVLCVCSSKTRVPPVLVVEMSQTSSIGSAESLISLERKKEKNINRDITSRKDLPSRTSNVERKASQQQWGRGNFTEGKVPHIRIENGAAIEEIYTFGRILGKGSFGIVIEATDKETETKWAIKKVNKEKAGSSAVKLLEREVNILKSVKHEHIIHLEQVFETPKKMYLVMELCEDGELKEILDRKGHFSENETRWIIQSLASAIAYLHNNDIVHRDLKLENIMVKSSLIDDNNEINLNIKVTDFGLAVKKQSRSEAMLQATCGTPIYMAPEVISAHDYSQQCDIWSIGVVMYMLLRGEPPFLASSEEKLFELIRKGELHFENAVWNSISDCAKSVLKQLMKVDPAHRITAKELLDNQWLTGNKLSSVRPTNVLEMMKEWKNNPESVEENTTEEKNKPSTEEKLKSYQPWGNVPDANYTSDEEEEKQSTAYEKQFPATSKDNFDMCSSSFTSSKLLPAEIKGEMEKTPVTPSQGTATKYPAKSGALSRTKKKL
The reply should be a number in %, with the unit left off.

Before answering, review these 6 worked examples.
[
  {
    "MOLECULE": "NC(=O)Nc1sc(-c2ccc(F)cc2)cc1C(N)=O",
    "VALUE_UNIT": "%",
    "residual activity": 89
  },
  {
    "MOLECULE": "CC(C)(C)c1nc2c3ccc(F)cc3c3c(=O)[nH]ccc3c2[nH]1",
    "VALUE_UNIT": "%",
    "residual activity": 34
  },
  {
    "MOLECULE": "O=C1Cc2c([nH]c3ccc(Br)cc23)-c2ccccc2N1",
    "VALUE_UNIT": "%",
    "residual activity": 97
  },
  {
    "MOLECULE": "O=C(c1ccccc1)c1ccc(N2CCOCC2)cc1O",
    "VALUE_UNIT": "%",
    "residual activity": 89
  },
  {
    "MOLECULE": "Nc1ncnc2c1c(-c1ccc(Oc3ccccc3)cc1)cn2C1CCCC1",
    "VALUE_UNIT": "%",
    "residual activity": 87
  },
  {
    "MOLECULE": "COc1cc2nccc(Oc3ccc(NC(=S)NC(=O)c4ccccc4C)cc3)c2cc1OC",
    "VALUE_UNIT": "%",
    "residual activity": 97
  }
]

Output residual activity of CCCC(=O)Oc1ccc2[nH]c(C(=O)c3cc4ccccc4[nH]3)cc2c1
92

Return reported residual activity. Input molecule: CCN(CC)CCNC(=O)c1c(C)[nH]c(/C=C2\C(=O)Nc3ccc(Cl)cc32)c1C
33

Provide measured residual activity value, entry: COc1cc2nccc(Oc3ccc(NC(=O)Nc4cc(C)on4)c(Cl)c3)c2cc1OC
81

For the molecule O=C(NC(NC(=S)Nc1ccc(F)c([N+](=O)[O-])c1)C(Cl)(Cl)Cl)C(c1ccccc1)c1ccccc1 (stereo not given) , give its reported residual activity.
98

Data origin: ChEMBL document CHEMBL2218924
